assay: Phage ELISA for skin binding affinity after body wash treatment (Example 15); parameters: species or system pig; settings: 200 μL Johnson's Head-to-Toe Baby Wash for 30 min after phage binding; mean of at least three replicates
Classification field: 1 = Body Wash A450 ± SEM at or over 1; 0 = Body Wash A450 ± SEM under 1.

{"substance": "D21: hair-binding phage peptide used as control in Example 15, known low binding affinity for skin (RTNAADHPAAVT; Hair-binding sequence) [Clone D21, reference compound]", "category label": 0}
{"substance": "QLSYHAYPQANHHAP (Body wash-resistant skin-binding peptide) [Skin-15mer-1]", "category label": 1}
{"substance": "SGCHLVYDNGFCDH (Body wash-resistant skin-binding peptide) [Skin-cys-1]", "category label": 1}
{"substance": "IB5: hair-binding phage peptide (Huang et al.) used as control, known low binding affinity for skin (TPPELLHGDPRS; Hair-binding peptide)", "category label": 0}
{"substance": "SPYPSWSTPAGR (Body wash-resistant skin-binding peptide) [Skin-12mer-9]", "category label": 1}

====

assay: Phage ELISA for skin binding affinity (Example 14); parameters: species or system pig; details: 1×10^11 pfu of phage, 37° C. 15 min, TBST-0.5% washes; anti-M13 HRP conjugate; mean of at least three replicates
The entries below come with measured A450 ± SEM values attached.
readout name: A450 ± SEM

{"chain": "SGCHLVYDNGFCDH (Body wash-resistant skin-binding peptide) [Skin-cys-1]", "readout name": "A450 ± SEM", "recorded measurement": 1.385}
{"chain": "SDTISRLHVSMT (Body wash-resistant skin-binding peptide) [Skin-12mer-7]", "readout name": "A450 ± SEM", "recorded measurement": 1.134}
{"chain": "GSSTVGRPSLYE (Body wash-resistant skin-binding peptide) [Skin-12mer-6]", "readout name": "A450 ± SEM", "recorded measurement": 0.677}
{"chain": "QLSYHAYPQANHHAP (Body wash-resistant skin-binding peptide) [Skin-15mer-1]", "readout name": "A450 ± SEM", "recorded measurement": 1.264}
{"chain": "WPMHPEKGSRWS (Body wash-resistant skin-binding peptide) [Skin-12mer-11]", "readout name": "A450 ± SEM", "recorded measurement": 0.81}
{"chain": "NLCDSARDSPRCKV (Body wash-resistant skin-binding peptide) [Skin-cys-3]", "readout name": "A450 ± SEM", "recorded measurement": 0.927}
{"chain": "DWCDTIIPGRTCHG (Body wash-resistant skin-binding peptide) [Skin-cys-6]", "readout name": "A450 ± SEM", "recorded measurement": 1.657}
{"chain": "SPYPSWSTPAGR (Body wash-resistant skin-binding peptide) [Skin-12mer-9]", "readout name": "A450 ± SEM", "recorded measurement": 1.146}
{"chain": "NQAASITKRVPY (Body wash-resistant skin-binding peptide) [Skin-12mer-5]", "readout name": "A450 ± SEM", "recorded measurement": 0.391}
{"chain": "SVSVGMKPSPRP (Body wash-resistant skin-binding peptide) [Skin-12mer-2]", "readout name": "A450 ± SEM", "recorded measurement": 0.818}
{"chain": "ASCPSASHADPCAH (Body wash-resistant skin-binding peptide) [Skin-cys-2]", "readout name": "A450 ± SEM", "recorded measurement": 1.184}
{"chain": "NHSNWKTAADFL (Body wash-resistant skin-binding peptide) [Skin-12mer-4]", "readout name": "A450 ± SEM", "recorded measurement": 0.874}
{"chain": "SPLTVPYERKLL (Body wash-resistant skin-binding peptide) [Skin-12mer-8]", "readout name": "A450 ± SEM", "recorded measurement": 0.433}
{"chain": "VQPITNTRYEGG (Body wash-resistant skin-binding peptide) [Skin-12mer-10]", "readout name": "A450 ± SEM", "recorded measurement": 0.418}
{"chain": "TMGFTAPRFPHY (Body wash-resistant skin-binding peptide) [Skin-12mer-1]", "readout name": "A450 ± SEM", "recorded measurement": 0.506}
{"chain": "DACSGNGHPNNCDR (Body wash-resistant skin-binding peptide) [Skin-cys-4]", "readout name": "A450 ± SEM", "recorded measurement": 0.852}
